Please respond with reported pKd for every item in the list.
Target: T1, CBP KIX, wild type (Example 20) (UniProt P45481 586-665, limits assumed)
T1 construct: domain: KIX; also called wild type CBP KIX; CBP MX
T1 sequence (P45481 586-665 limits assumed): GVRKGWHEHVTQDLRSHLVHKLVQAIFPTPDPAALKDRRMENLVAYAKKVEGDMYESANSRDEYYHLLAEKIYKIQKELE
Assay: FP, fluorescein-labelled PPKID4^P variant titrated with CBP KIX
Square brackets hold non-standard residues; d marks the D form. Primed or numbered codes have the meaning given here. Ends that are not written are not given here. acetamidofluorescein″ = acetamidofluorescein (5-iodoacetamidofluorescein attached to the C-terminal Cys); pS = N[C@@H](COP(=O)(O)O)C(=O)O
Give bare numbers, as −log10 of the molar value.

Some solved entries appear below for comparison.
{"columns": ["binder", "observed"],
 "data": [
  ["GPSQPTYPGDDAPVRRL[pS]FFYILLDLYADAPGVC(acetamidofluorescein″)-NH2 (designed binder) [PPKID4^P L28A]", 6.08],
  ["GPSQPTYPGDDAPVRRL[pS]FFYILLDLALDAPGVC(acetamidofluorescein″)-NH2 (designed binder) [PPKID4^P Y27A]", 5.51]
]}

Next up:
Need pKd, item GPSQPTYPGDDAPVRRL[pS]FAYILLDLYLDAPGVC(acetamidofluorescein″)-NH2 (designed binder) [PPKID4^P F20A]
5.59
